Origin of the recorded values: patent US6384051B1

Recorded melting point for the following compounds

(Q) Using the record for COc1ccc(Nc2c(C#N)cnc3c(OC)cccc23)cc1O , report its melting point.
(A) 138 to 140 °C (dec.)

(Q) Using the record for COc1ccc(OC)c2c(Nc3cccc(Br)c3)c(C#N)cnc12 , report its melting point.
(A) 72 to 74 °C

(Q) Using the record for COc1ccc(OC)c2c(Nc3cccc(N(C)C)c3)c(C#N)cnc12 , report its melting point.
(A) 103 to 105 °C

(Q) Using the record for COc1cc2ncc(C#N)c(Nc3ccc(Cl)c(C(F)(F)F)c3)c2cc1OC , report its melting point.
(A) 265 to 267 °C

(Q) Using the record for COc1ccc2ncc(C#N)c(Nc3ccc(C)c(O)c3)c2c1 , report its melting point.
(A) > 250 °C (dec.)

(Q) Using the record for COc1cc2ncc(C#N)c(Nc3cccc(CO)c3C)c2cc1OC , report its melting point.
(A) 123 to 125 °C

(Q) Using the record for COc1cc2ncc(C#N)c(Oc3cccc(Br)c3)c2cc1OC , report its melting point.
(A) 187 to 190 °C

(Q) Using the record for CN(C)CC#CC(=O)Nc1ccc2ncc(C#N)c(Nc3ccc(F)c(Cl)c3)c2c1 , report its melting point.
(A) 225 °C (dec.)

(Q) Using the record for COc1cc2c(Nc3ccccc3SC)c(C#N)cnc2cc1OCCCN1CCOCC1 , report its melting point.
(A) 179 to 180 °C
